Molecular target: human cloned CHRM4 receptor (Homo sapiens, UniProt P08173)
Sequence (P08173 whole entry): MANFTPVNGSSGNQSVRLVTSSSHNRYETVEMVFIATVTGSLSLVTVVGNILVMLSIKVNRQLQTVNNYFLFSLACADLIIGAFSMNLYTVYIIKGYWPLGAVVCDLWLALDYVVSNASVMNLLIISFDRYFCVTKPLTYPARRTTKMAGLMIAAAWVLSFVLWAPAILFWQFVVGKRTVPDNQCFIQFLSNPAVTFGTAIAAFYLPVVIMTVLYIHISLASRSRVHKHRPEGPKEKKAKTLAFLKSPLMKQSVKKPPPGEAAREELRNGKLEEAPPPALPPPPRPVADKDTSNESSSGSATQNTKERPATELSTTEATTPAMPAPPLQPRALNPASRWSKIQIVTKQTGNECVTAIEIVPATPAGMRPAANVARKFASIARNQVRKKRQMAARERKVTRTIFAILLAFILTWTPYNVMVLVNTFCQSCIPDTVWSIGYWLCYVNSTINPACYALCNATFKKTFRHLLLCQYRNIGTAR
Assay: CHRM4 Ca++ Flux Assay (M4_CHO cells, agonist mode)
Settings: geometric mean if tested more than once, read-out: M4 FDSS EC50
Source text: The above examples were characterized by measuring the intracellular mobilization of Ca^++ ions caused by signaling events mediated by the receptor. […]
pEC50: −log10 of the molar value.
Please mark y if the recorded pEC50 is equal to or greater than 8, and n if it falls below.

Fc1ccc(OC[C@H]2CCO2)c(C2CCN([C@@H]3COC4(C3)CN(c3nncs3)C4)CC2)c1.O=C(O)C(F)(F)F (single isomer, unassigned) [Example 2D]: n
c1ccc(C2CCN([C@@H]3COC4(C3)CN(c3ncco3)C4)CC2)c(OC2CC3(COC3)C2)c1: n
CC(C)(C#N)COc1ccc(F)cc1C1CCN([C@@H]2COC3(C2)CN(c2nnco2)C3)CC1: n
c1ccc(C2CCN([C@@H]3COC4(C3)CN(c3ncco3)C4)CC2)c(-c2cncnc2)c1: y
Fc1ccc(OC2COC2)c(C2CCN([C@@H]3COC4(C3)CN(c3ncco3)C4)CC2)c1: y
Cc1nnc(COc2ccc(F)cc2C2CCN([C@@H]3COC4(C3)CN(c3nnco3)C4)CC2)o1: y

Now look at this one.
Assess whether reported pEC50 for "Fc1ccc(C2CCN([C@@H]3COC4(C3)CN(c3ncco3)C4)CC2)c(OC2COC2)c1" sits at 8 or higher.
n
